# Tested on: anti-6-keto-PGF1α antibody
# ASSAY_SUMMARY: Cross-reactivity of related prostaglandins in the 6-keto-PGF1α aequorin bioluminescent immunoassay
# Format: binding, sheep
# REPORTED_CONDITIONS: calculated at 50% B/B0; cross reactant used in the dose response curve instead of 6-keto-PGF1α; assay buffer
// boundary case: Percent cross-reactivity equal to 5% maps to no (0); strictly smaller maps to yes (1)

Q: For this molecule, is Percent cross-reactivity lower than 5%? CCCCC[C@H](O)/C=C/[C@H]1[C@H](O)CC(=O)[C@@H]1CCCCCCC(=O)O [Prostaglandin E1]
A: no (0)

Q: Is it true that Percent cross-reactivity reported for CCCCC[C@H](O)/C=C/[C@@H]1[C@@H](CCCCCCC(=O)O)[C@@H](O)C[C@H]1O [Prostaglandin F1] is less than 5%?
A: no (0)

Q: Answer whether the molecule CCCCC[C@H](O)/C=C/[C@@H]1[C@@H](CC(=O)CCC(=O)O)[C@@H](O)C[C@H]1O [2,3-dinor-6-keto-Prostaglandin F1, 2,3-dinor-6-keto-Prostaglandin F1α] has Percent cross-reactivity strictly less than 5%
A: no (0)

Q: Record CCCCCC(=O)CCC1C(O)CC(O)C1CC(=O)CCCCC(=O)O (centres unmarked) : is its Percent cross-reactivity strictly below 5%?
A: yes (1)

Q: Is the reported Percent cross-reactivity for CCCCC[C@H](O)/C=C/[C@@H]1[C@@H](CC(=O)CCCCC(=O)O)[C@@H](O)C[C@H]1O [6-keto-Prostaglandin F1, 6-keto-Prostaglandin F1α] strictly below 5%?
A: no (0)

Q: Consider the molecule CCCCC[C@H](O)/C=C/[C@H]1C(=O)C[C@H](O)[C@@H]1C/C=C\CCCC(=O)O [Prostaglandin D2] . Is its Percent cross-reactivity strictly less than 5%?
A: no (0)

Q: Does the reported Percent cross-reactivity of the following molecule sit strictly below 5%? CCCCC[C@H](O)/C=C/[C@@H]1[C@@H](C/C=C\CCCC(=O)O)[C@@H](O)C[C@H]1O [Prostaglandin F2]
A: yes (1)

Q: Would you kindly verify if Percent cross-reactivity of CCCCCC(=O)CCC1C(O)CC(O)C1CCCCCCC(=O)O (centres unmarked) [13,14-dihydroxy-15-keto-Prostaglandin F1] is strictly less than 5%?
A: yes (1)
